Please respond with reported pKd for every item in the list.
# target_system: EGFR (WT) (Homo sapiens)
# Construct: The EGFR constructs span amino acids R669 to V1011 of the EGFR protein; T7 phage display fusion (kinase-tagged T7 phage) or DNA tag for qPCR; made in house; host or cells: E. coli (BL21-derived) infected with T7 phage for most assays; remaining kinases in HEK-293
# Sequence (P00533 669-1011): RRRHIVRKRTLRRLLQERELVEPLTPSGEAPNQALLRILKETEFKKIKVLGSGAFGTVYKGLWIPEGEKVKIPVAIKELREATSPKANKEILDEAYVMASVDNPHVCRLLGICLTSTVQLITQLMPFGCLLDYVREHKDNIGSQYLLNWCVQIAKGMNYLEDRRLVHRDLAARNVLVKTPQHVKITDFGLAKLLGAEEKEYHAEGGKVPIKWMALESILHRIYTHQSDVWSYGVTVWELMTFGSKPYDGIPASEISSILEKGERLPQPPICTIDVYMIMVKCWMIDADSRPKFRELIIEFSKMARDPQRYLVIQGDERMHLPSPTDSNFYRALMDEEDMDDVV
# assay_remarks: In vitro kinase binding assay (phage/DNA-tagged kinase, affinity beads, qPCR), wild-type EGFR
# reported_conditions: wild-type EGFR construct R669 to V1011; 11-point 3-fold dilution series; 1 hour at room temperature; read-out: EGFR (WT) Kd
pKd: −log10 of the molar value.

For the 2 molecules below, give their pKd values.
1. C=CC(=O)N1C[C@H](COc2nc(Nc3cnn(CCCCCNC(=O)CN4CCN(CC(=O)O)CCN(CC(=O)O)CCN(CC(=O)O)CC4)c3)nc3[nH]cc(Cl)c23)[C@@H](OC)C1
2. C=CC(=O)N[C@@H]1CN(c2nc(Nc3cn(CCCCCNC(=O)CN4CCN(CC(=O)O)CCN(CC(=O)O)CCN(CC(=O)O)CC4)nc3OC)c3ncn(C)c3n2)C[C@H]1F

Reply:
["6.00 to 7.00", "7.00 to 8.70"]

For the 2 molecules below, give their pKd values.
1. C=CC(=O)N[C@@H]1CN(c2nc(Nc3cn(CCCNC(=O)CN4CCN(CC(=O)O)CCN(CC(=O)O)CCN(CC(=O)O)CC4)nc3OC)c3ncn(C)c3n2)C[C@H]1F
2. C=CC(=O)N[C@@H]1CN(c2nc(Nc3cn(CCCCCNC(=O)CN4CCN(CC(=O)O)CCN(CC(=O)O)CCN(CC(=O)O)CC4)nc3OC)c3ncn(C(C)(C)C)c3n2)C[C@H]1F

Reply:
1: 7.00 to 8.70; 2: 6.00 to 7.00

====

Please respond with reported pKd for every item in the list.
# target_system: EGFR (L858R, T790M) (Homo sapiens, UniProt P00533, L858R/T790M)
# Construct: The EGFR constructs span amino acids R669 to V1011 of the EGFR protein; T7 phage display fusion (kinase-tagged T7 phage) or DNA tag for qPCR; made in house; host or cells: E. coli (BL21-derived) infected with T7 phage for most assays; remaining kinases in HEK-293
# Sequence (P00533 669-1011 T790M/L858R): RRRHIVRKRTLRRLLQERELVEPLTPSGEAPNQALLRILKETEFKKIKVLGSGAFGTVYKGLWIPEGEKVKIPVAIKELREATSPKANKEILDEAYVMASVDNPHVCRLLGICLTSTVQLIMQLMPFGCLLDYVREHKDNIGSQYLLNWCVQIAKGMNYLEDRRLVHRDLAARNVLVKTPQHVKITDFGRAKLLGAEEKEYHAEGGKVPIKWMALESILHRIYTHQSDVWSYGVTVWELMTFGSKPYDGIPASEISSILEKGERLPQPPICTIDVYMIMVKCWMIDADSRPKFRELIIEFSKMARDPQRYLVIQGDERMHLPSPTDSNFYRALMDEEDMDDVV
# assay_remarks: In vitro kinase binding assay (phage/DNA-tagged kinase, affinity beads, qPCR), mutant EGFR
pKd: −log10 of the molar value.

[[record]]
line_notation = "C=CC(=O)N[C@@H]1CN(c2nc(Nc3cn(CCCCCNC(=O)CN4CCN5CCN6CCN(CC4)CC(=O)[O][Lu]([O]C(=O)C5)[O]C(=O)C6)nc3OC)c3ncn(C)c3n2)C[C@H]1F"
target_system = "EGFR (L858R, T790M) (Homo sapiens, UniProt P00533, L858R/T790M)"
quantity_measured = "pKd"
val = "> 9.00"


For the 4 compounds below, give their pKd values.
1. C=CC(=O)N[C@@H]1CN(c2nc(Nc3cn(CCCCCNC(=O)CN4CCN5CCN6CCN(CC4)CC(=O)[O][Lu]([O]C(=O)C5)[O]C(=O)C6)nc3CC)c3ncn(C(C)(C)C)c3n2)C[C@H]1F
2. C=CC(=O)N[C@@H]1CN(c2nc(Nc3cn(CCCCCNC(=O)CN4CCN5CCN6CCN(CC4)CC(=O)[O][Lu]([O]C(=O)C5)[O]C(=O)C6)nc3OC)c3ncn(C(C)(C)C)c3n2)C[C@H]1F
3. C=CC(=O)N[C@@H]1CN(c2nc(Nc3cn(CCCCCCCNC(=O)CN4CCN5CCN6CCN(CC4)CC(=O)[O][Lu]([O]C(=O)C5)[O]C(=O)C6)nc3OC)c3ncn(C)c3n2)C[C@H]1F
4. C=CC(=O)N[C@@H]1CN(c2nc(Nc3cn(CCCNC(=O)CN4CCN5CCN6CCN(CC4)CC(=O)[O][Lu]([O]C(=O)C5)[O]C(=O)C6)nc3OC)c3ncn(C)c3n2)C[C@H]1F

Reply:
7.60 to 9.00
> 9.00
> 9.00
> 9.00

Ask: Requested read-out: pKd. Entry: `C=CC(=O)N1C[C@H](COc2nc(Nc3cnn(CCCCCNC(=O)CN4CCN5CCN6CCN(CC4)CC(=O)[O][Lu]([O]C(=O)C5)[O]C(=O)C6)c3)nc3[nH]cc(Cl)c23)[C@@H](OC)C1`
Reply: > 9.00

The measured values listed here are drawn from patent US20240342318A1.
